Test: Cytotoxicity against human embryonic lung cells
Format: cell-based
Conditions: read-out: TC50 (the source's name)
assayReadout: CC50 (µM)
Kindly answer with a numeric value in µM, unit omitted.

Request: Specify reported CC50 for the molecule shown: "C/C=C/C[C@@H](C)[C@@H](O)[C@H]1C(=O)N[C@@H](CC)C(=O)N(C)[C@H](C)C(=O)N(CC)[C@@H](C(C)C)C(=O)N[C@@H](C(C)C)C(=O)N(C)[C@@H](CC(C)C)C(=O)N[C@@H](C)C(=O)N[C@H](C)C(=O)N(C)[C@@H](CC(C)C)C(=O)N(C)[C@@H](CC(C)C)C(=O)N(C)[C@@H](C(C)C)C(=O)N1C"
Result: 25
